Examples of molecules with documented EC50 follow.
tested on: Influenza A virus; assay: Antiviral activity against Influenza A virus (A/Ned/378/05(H1N1)) infected in dog MDCK cells assessed as reduction in virus-induced cytopathogenicity incubated for 7 days by microscopic analysis; format: functional, organism-based; details: Influenza A virus, A/Ned/378/05(H1N1), MDCK, 168 h
# number only, unit µM dropped from output

- Molecule: "O=C1O[C@H]([C@@H](O)Cn2ccnn2)C(OCc2ccccc2)=C1OCc1ccccc1"
  EC50 / µM: 75

Continue with the next molecule.
Entry NC12CC3CC(CC(C3)C1)C2 [AMANTADINE] , EC50 reported as 20

* * *

tested on: Human alphaherpesvirus 2; experiment: Antiviral activity against Herpes simplex virus 2 G infected in human HELF cells assessed as reduction in virus-induced cytopathogenicity incubated for 7 days by microscopic analysis; format: functional, organism-based; settings: Human alphaherpesvirus 2, G, 168 h
Examples of compounds with documented pEC50 follow.
When answering, recall that pEC50 equals minus log10 of the concentration in mol/L, and write that number alone.

The examples below pair each entry with its known result.
- Compound: "Nc1ccn(C[C@@H](CO)OCP(=O)(O)O)c(=O)n1 [CIDOFOVIR]"
  Measurement Target: "Human alphaherpesvirus 2"
  pEC50: 5.28
- Compound: "CCCCc1cn(C/C=C2\\OC(=O)C(OCc3ccccc3)=C2OCc2ccccc2)nn1"
  Measurement Target: "Human alphaherpesvirus 2"
  pEC50: 5.02
- Compound: "Nc1nc(O)c2ncn(COC(CO)CO)c2n1 [GANCICLOVIR]"
  Measurement Target: "Human alphaherpesvirus 2"
  pEC50: 6.52

Continue with the next compound.
Form: item Nc1nc2c(ncn2COCCO)c(=O)[nH]1 [ACYCLOVIR] ; test system Human alphaherpesvirus 2; pEC50: 5.70

* * *

test system: SW-620; experiment: Antiproliferative activity against human SW620 cells assessed as reduction in cell viability incubated for 72 hrs by MTT assay; type: functional, cell-based; conditions: SW-620, 72 h
Readout Label: log10 of IC50 (log10 of the value in µM)
Values reflect log10 of reported IC50 (µM).

The examples below pair each entry with its known result.
- Smiles String: "O=C1O[C@H]([C@@H](O)Cn2cc(-c3ccc(Br)cc3)nn2)C(OCc2ccccc2)=C1OCc1ccccc1"
  log10 of IC50: 0.58
- Smiles String: "O=C1O/C(=C\\Cn2cc(-c3cccc(O)c3)nn2)C(OCc2ccccc2)=C1OCc1ccccc1"
  log10 of IC50: 1.84
- Smiles String: "CC(C)(C)c1cn(C[C@H](O)[C@H]2OC(=O)C(OCc3ccccc3)=C2OCc2ccccc2)nn1"
  log10 of IC50: 1.55
- Smiles String: "O=C1O[C@H]([C@@H](O)Cn2cc(CNS(=O)(=O)c3ccc(F)cc3)nn2)C(OCc2ccccc2)=C1OCc1ccccc1"
  log10 of IC50: 1.61
- Smiles String: "O=C1O/C(=C\\Cn2cc(CCO)nn2)C(OCc2ccccc2)=C1OCc1ccccc1"
  log10 of IC50: 1.62
- Smiles String: "CCCCCc1ccc(-c2cn(C[C@H](O)[C@H]3OC(=O)C(OCc4ccccc4)=C3OCc3ccccc3)nn2)cc1"
  log10 of IC50: 1.09
- Smiles String: "CCCCc1cn(C[C@H](O)[C@H]2OC(=O)C(OCc3ccccc3)=C2OCc2ccccc2)nn1"
  log10 of IC50: 1.68

Continue with the next molecule.
Form: item Cc1ccc(S(=O)(=O)NCc2cn(C[C@H](O)[C@H]3OC(=O)C(OCc4ccccc4)=C3OCc3ccccc3)nn2)cc1 ; test system SW-620; log10 of IC50: 1.66

* * *

test system: HFF; experiment: Cytotoxicity against human HFF cells assessed as reduction in cell viability incubated for 72 hrs by MTT assay; format: cell-based
Readout Label: pIC50
When answering, recall that pIC50 equals minus log10 of the concentration in mol/L, and write that number alone.

The examples below pair each entry with its known result.
- Smiles String: "O=C1O[C@H]([C@@H](O)Cn2cc(CNS(=O)(=O)c3ccc(Cl)cc3)nn2)C(OCc2ccccc2)=C1OCc1ccccc1"
  pIC50: 7.70
- Smiles String: "O=C1O[C@H]([C@@H](O)Cn2ccnn2)C(OCc2ccccc2)=C1OCc1ccccc1"
  pIC50: 6.21

Entry CC(C)(C)c1cn(C/C=C2\OC(=O)C(OCc3ccccc3)=C2OCc2ccccc2)nn1 , pIC50 reported as 4.30

* * *

tested on: A549; experiment: Antiproliferative activity against human A549 cells assessed as reduction in cell viability incubated for 72 hrs by MTT assay; format: functional, cell-based; settings: A549, 72 h
Readout Label: pIC50
When answering, recall that pIC50 equals minus log10 of the concentration in mol/L, and write that number alone.

The examples below pair each entry with its known result.
- Smiles String: "CCCCc1cn(C[C@H](O)[C@H]2OC(=O)C(OCc3ccccc3)=C2OCc2ccccc2)nn1"
  pIC50: 4.54
- Smiles String: "O=C1O[C@H]([C@@H](O)Cn2cc(CNS(=O)(=O)c3ccc(Cl)cc3)nn2)C(OCc2ccccc2)=C1OCc1ccccc1"
  pIC50: 5.54

Entry CCCCCc1ccc(-c2cn(C[C@H](O)[C@H]3OC(=O)C(OCc4ccccc4)=C3OCc3ccccc3)nn2)cc1 , pIC50 reported as 5.21

Entry O=C1O/C(=C\Cn2cc(-c3cccc(O)c3)nn2)C(OCc2ccccc2)=C1OCc1ccccc1 , pIC50 reported as 4.63

Entry Cc1ccc(S(=O)(=O)NCc2cn(C[C@H](O)[C@H]3OC(=O)C(OCc4ccccc4)=C3OCc3ccccc3)nn2)cc1 , pIC50 reported as 4.78

Entry O=C1O[C@H]([C@@H](O)Cn2cc(-c3cccc(O)c3)nn2)C(OCc2ccccc2)=C1OCc1ccccc1 , pIC50 reported as 4.22

Entry O=C1O[C@H]([C@@H](O)Cn2cc(-c3cc(F)cc(F)c3)nn2)C(OCc2ccccc2)=C1OCc1ccccc1 , pIC50 reported as 4.38

Entry O=C1O[C@H]([C@@H](O)Cn2cc(C3CC3)nn2)C(OCc2ccccc2)=C1OCc1ccccc1 , pIC50 reported as 4.36

Entry Cc1ccc(-c2cn(C[C@H](O)[C@H]3OC(=O)C(OCc4ccccc4)=C3OCc3ccccc3)nn2)cc1 , pIC50 reported as 5.06

Entry COc1ccc(-c2cn(C[C@H](O)[C@H]3OC(=O)C(OCc4ccccc4)=C3OCc3ccccc3)nn2)cc1 , pIC50 reported as 4.55

Entry O=C1O[C@H]([C@@H](O)Cn2cc(CCCCl)nn2)C(OCc2ccccc2)=C1OCc1ccccc1 , pIC50 reported as 4.54

Entry CC(C)(C)c1cn(C[C@H](O)[C@H]2OC(=O)C(OCc3ccccc3)=C2OCc2ccccc2)nn1 , pIC50 reported as 4.47

* * *

test: Cytotoxicity against human HELF cells assessed as reduction in cell viability incubated for 3 days by coulter counter method; assay type: cell-based; settings: 72 h
Readout Label: CC50 (µM)
# number only, unit µM dropped from output

- Smiles String: "CC(C)(C)c1cn(C/C=C2\\OC(=O)C(OCc3ccccc3)=C2OCc2ccccc2)nn1"
  CC50, µM: 55.5

Entry Nc1ccn(C[C@@H](CO)OCP(=O)(O)O)c(=O)n1 , CC50 reported as 214

Entry COc1ccccc1-c1cn(C/C=C2\OC(=O)C(OCc3ccccc3)=C2OCc2ccccc2)nn1 , CC50 reported as 4.29

Entry O=c1[nH]c(=O)n([C@H]2C[C@H](O)[C@@H](CO)O2)cc1/C=C/Br , CC50 reported as 179

* * *

system: Influenza A virus H3N2; assay: Antiviral activity against Influenza A virus (A/HK/7/87(H3N2)) infected in dog MDCK cells assessed as reduction in virus-induced cytopathogenicity incubated for 7 days by MTS assay; assay type: functional, organism-based; details: A/Hong Kong/7/1987(H3N2)
Activity calls are given as the source filed them. No cut-off for these calls is given here.
Readout Label: Activity

The examples below pair each entry with its known result.
- Smiles String: "Cc1ccc(-c2cn(C/C=C3\\OC(=O)C(OCc4ccccc4)=C3OCc3ccccc3)nn2)cc1"
  Measurement Target: "Influenza A virus H3N2"
  Activity: "inactive"
- Smiles String: "O=C1O[C@H]([C@@H](O)Cn2cc(C3CC3)nn2)C(OCc2ccccc2)=C1OCc1ccccc1"
  Measurement Target: "Influenza A virus H3N2"
  Activity: "inactive"
- Smiles String: "COc1ccc(-c2cn(C/C=C3\\OC(=O)C(OCc4ccccc4)=C3OCc3ccccc3)nn2)cc1"
  Measurement Target: "Influenza A virus H3N2"
  Activity: "inactive"
- Smiles String: "CC(C)(C)c1cn(C[C@H](O)[C@H]2OC(=O)C(OCc3ccccc3)=C2OCc2ccccc2)nn1"
  Measurement Target: "Influenza A virus H3N2"
  Activity: "inactive"
- Smiles String: "C[Si](C)(C)c1cn(C[C@H](O)[C@H]2OC(=O)C(OCc3ccccc3)=C2OCc2ccccc2)nn1"
  Measurement Target: "Influenza A virus H3N2"
  Activity: "inactive"

Entry O=C1O/C(=C\Cn2cc(-c3ccc(Br)cc3)nn2)C(OCc2ccccc2)=C1OCc1ccccc1 , Activity reported as inactive

Entry COc1ccccc1-c1cn(C/C=C2\OC(=O)C(OCc3ccccc3)=C2OCc2ccccc2)nn1 , Activity reported as inactive

Entry CC(C)(C)c1cn(C/C=C2\OC(=O)C(OCc3ccccc3)=C2OCc2ccccc2)nn1 , Activity reported as inactive
